system: BT-549; test: Growth inhibition of human BT549 cells assessed as cell growth at 10 uM after 48 hrs by sulforhodamine B assay; assay type: functional; details: BT-549, 48 h, read-out: Activity
property-measured: growth at 10 µM (%)

O=C(Nc1cccc(-n2cc(-c3ccncc3)c(-c3ccc(Cl)c(O)c3)n2)c1)Nc1cccc(C(F)(F)F)c1	36
COc1cc(-c2nn(-c3cccc(NC(=O)c4ccc(Cl)c(C(F)(F)F)c4)c3)cc2-c2ccncc2)ccc1Cl	49.7
Cc1cc(C(=O)Nc2cccc(-n3cc(-c4ccncc4)c(-c4ccc(Cl)c(O)c4)n3)c2)ccc1Br	103
COc1cc(-c2nn(-c3cccc(NC(=O)Nc4ccc(Cl)c(Cl)c4)c3)cc2-c2ccncc2)ccc1Cl	6.23
COc1cc(-c2nn(-c3cccc(NC(=O)Nc4cccc(C(F)(F)F)c4)c3)cc2-c2ccncc2)ccc1Cl	-15.4
O=C(Nc1cccc(-n2cc(-c3ccncc3)c(-c3ccc(Cl)c(O)c3)n2)c1)Nc1ccc(Cl)c(Cl)c1	34.4
